Assay: self-splicing fitness, log relative to wild type (ln ratio); higher = more splicing; Tetrahymena group I intron in knt gene, E. coli kanamycin selection, DiMSum; sequences stand for … in CUCUCU…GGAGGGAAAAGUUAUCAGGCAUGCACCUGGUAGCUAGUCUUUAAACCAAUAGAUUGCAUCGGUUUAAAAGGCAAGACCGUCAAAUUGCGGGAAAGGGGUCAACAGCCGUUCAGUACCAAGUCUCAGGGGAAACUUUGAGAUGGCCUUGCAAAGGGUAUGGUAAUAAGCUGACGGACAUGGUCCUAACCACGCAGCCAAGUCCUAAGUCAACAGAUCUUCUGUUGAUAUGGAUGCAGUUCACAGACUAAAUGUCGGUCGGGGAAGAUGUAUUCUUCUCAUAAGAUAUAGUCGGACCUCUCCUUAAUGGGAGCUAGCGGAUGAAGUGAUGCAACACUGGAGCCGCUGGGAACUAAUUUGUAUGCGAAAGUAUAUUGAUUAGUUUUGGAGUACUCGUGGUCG;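 note: selection with 25 µg/mL kanamycin versus none on LB agar overnight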
Details: 30 °C
Entries and their self-splicing fitness (ln) values follow.
Hey, just send me the number, nothing else.

In the examples that follow, each entry is paired with its recorded self-splicing fitness (ln).
INSERT INTO assay_data (biopolymer_sequence, measured_metric, result) VALUES
  ('UCGUAGCAAUAUUACGGAUA', 'self-splicing fitness (ln)', -1.59),
  ('GUACAGCAAUAUUACGACCC', 'self-splicing fitness (ln)', -0.186);

Entry under review: UUUUAGCAAUAUUACGAGCG . Reported self-splicing fitness (ln)?
-1.02

Entry under review: AGUAAGCAAUAUUACGUCCU . Reported self-splicing fitness (ln)?
-0.602

Entry under review: AUCCAGCAAUAUUACGUAUA . Reported self-splicing fitness (ln)?
-0.94

Entry under review: GUUUAGCAAUAUUACGAGUU . Reported self-splicing fitness (ln)?
-4.25

###

Entries and their self-splicing fitness (ln) values follow.
Experiment: self-splicing fitness, log relative to wild type (ln ratio); higher = more splicing; Tetrahymena group I intron in knt gene, E. coli kanamycin selection, DiMSum; sequences stand for … in CUCUCU…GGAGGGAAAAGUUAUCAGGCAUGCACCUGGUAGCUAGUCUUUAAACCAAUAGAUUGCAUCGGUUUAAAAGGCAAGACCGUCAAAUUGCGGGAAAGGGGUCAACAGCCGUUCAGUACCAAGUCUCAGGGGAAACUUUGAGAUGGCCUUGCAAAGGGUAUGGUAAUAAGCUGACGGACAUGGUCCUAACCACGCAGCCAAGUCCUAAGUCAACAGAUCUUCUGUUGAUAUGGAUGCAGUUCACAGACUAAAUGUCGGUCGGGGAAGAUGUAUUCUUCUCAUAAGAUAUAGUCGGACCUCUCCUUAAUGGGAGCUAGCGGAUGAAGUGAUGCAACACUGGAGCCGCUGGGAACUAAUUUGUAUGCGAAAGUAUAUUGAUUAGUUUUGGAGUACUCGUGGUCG
Settings: 37 °C
Hey, just send me the number, nothing else.

In the examples that follow, each entry is paired with its recorded self-splicing fitness (ln).
INSERT INTO assay_data (biopolymer_sequence, result) VALUES
  ('AGAUAGCAAUAUUACGUCCA', 0.122),
  ('CACUAGCAAUAUUACGCUCG', 0.214);

Entry under review: CACCAGCAAUAUUACGGUAA . Reported self-splicing fitness (ln)?
-0.566

Entry under review: GCCAAGCAAUAUUACGUAAU . Reported self-splicing fitness (ln)?
-0.183

Entry under review: CUAAAGCAAUAUUACGUAUA . Reported self-splicing fitness (ln)?
-3.09

Entry under review: CUGUAGCAAUAUUACGGGUC . Reported self-splicing fitness (ln)?
-2.65

Entry under review: UACCAGCAAUAUUACGGAGA . Reported self-splicing fitness (ln)?
-0.596

Entry under review: UCGCAGCAAUAUUACGAGUG . Reported self-splicing fitness (ln)?
-0.719

Entry under review: CCAUAGCAAUAUUACGACUC . Reported self-splicing fitness (ln)?
-2.18

Entry under review: CAUGAGCAAUAUUACGAACG . Reported self-splicing fitness (ln)?
-0.421

Entry under review: ACGAAGCAAUAUUACGUCAA . Reported self-splicing fitness (ln)?
-3.51

Entry under review: CCCAAGCAAUAUUACGUUUA . Reported self-splicing fitness (ln)?
-3.04

Entry under review: AAACAGCAAUAUUACGCACG . Reported self-splicing fitness (ln)?
-0.888

Entry under review: GUGCAGCAAUAUUACGCCUA . Reported self-splicing fitness (ln)?
0.608

Entry under review: CCACAGCAAUAUUACGACCG . Reported self-splicing fitness (ln)?
-0.00245

Entry under review: UUUCAGCAAUAUUACGGAUC . Reported self-splicing fitness (ln)?
-0.289

###

Test: self-splicing fitness, log relative to wild type (ln ratio); higher = more splicing; Tetrahymena group I intron in knt gene, E. coli kanamycin selection, DiMSum; sequences stand for … in CUCUCU…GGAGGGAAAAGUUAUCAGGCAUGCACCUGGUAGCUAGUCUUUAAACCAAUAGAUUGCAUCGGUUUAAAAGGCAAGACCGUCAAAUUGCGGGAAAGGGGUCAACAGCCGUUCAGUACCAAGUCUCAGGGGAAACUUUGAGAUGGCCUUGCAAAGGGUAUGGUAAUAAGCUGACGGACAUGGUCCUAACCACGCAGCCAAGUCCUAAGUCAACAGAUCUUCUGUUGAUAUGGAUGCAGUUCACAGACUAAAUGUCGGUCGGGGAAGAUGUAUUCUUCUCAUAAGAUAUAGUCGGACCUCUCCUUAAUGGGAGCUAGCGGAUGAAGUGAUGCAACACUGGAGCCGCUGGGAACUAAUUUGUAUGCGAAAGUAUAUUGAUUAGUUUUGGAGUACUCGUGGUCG
Settings: 30 °C
Entries and their self-splicing fitness (ln) values follow.
Hey, just send me the number, nothing else.

In the examples that follow, each entry is paired with its recorded self-splicing fitness (ln).
INSERT INTO measurements (biopolymer_sequence, result) VALUES
  ('CCACAGCAAUAUUACGGCAG', -1.16),
  ('UUCAAGCAAUAUUACGCCUA', 0.0224),
  ('UGAUAGCAAUAUUACGCAGU', -2.93),
  ('GUAUAGCAAUAUUACGGCAU', -0.587),
  ('CCCCAGCAAUAUUACGCCCC', -2.98),
  ('CUAGAGCAAUAUUACGUCAA', -3.76);

Entry under review: AGAGAGCAAUAUUACGGAAC . Reported self-splicing fitness (ln)?
-2.74

Entry under review: CCCCAGCAAUAUUACGUUCG . Reported self-splicing fitness (ln)?
-3.53

Entry under review: GCACAGCAAUAUUACGAUCG . Reported self-splicing fitness (ln)?
-1.08

Entry under review: GCUAAGCAAUAUUACGGUCG . Reported self-splicing fitness (ln)?
-2.27

Entry under review: AUAGAGCAAUAUUACGGACA . Reported self-splicing fitness (ln)?
-2.38

Entry under review: AUCCAGCAAUAUUACGAAGG . Reported self-splicing fitness (ln)?
-3.07

Entry under review: UGUAAGCAAUAUUACGCCAC . Reported self-splicing fitness (ln)?
-3.43

Entry under review: GUCCAGCAAUAUUACGAUGU . Reported self-splicing fitness (ln)?
-0.9

Entry under review: CGCAAGCAAUAUUACGUGGG . Reported self-splicing fitness (ln)?
-4.69

Entry under review: GUAGAGCAAUAUUACGGCAU . Reported self-splicing fitness (ln)?
-0.0916

###

Test: self-splicing fitness, log relative to wild type (ln ratio); higher = more splicing; Tetrahymena group I intron in knt gene, E. coli kanamycin selection, DiMSum; sequences stand for … in CUCUCU…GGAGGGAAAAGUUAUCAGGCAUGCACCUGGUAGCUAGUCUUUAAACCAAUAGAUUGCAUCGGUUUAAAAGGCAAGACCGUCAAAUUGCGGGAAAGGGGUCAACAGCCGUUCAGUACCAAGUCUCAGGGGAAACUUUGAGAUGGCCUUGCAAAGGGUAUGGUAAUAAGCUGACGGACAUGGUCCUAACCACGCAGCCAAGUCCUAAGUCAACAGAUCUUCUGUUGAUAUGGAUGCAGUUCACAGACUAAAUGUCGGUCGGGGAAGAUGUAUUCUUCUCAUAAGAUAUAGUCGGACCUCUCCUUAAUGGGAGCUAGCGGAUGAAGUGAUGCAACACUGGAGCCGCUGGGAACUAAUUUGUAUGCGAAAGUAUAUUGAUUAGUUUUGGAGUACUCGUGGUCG
Details: 37 °C
Entries and their self-splicing fitness (ln) values follow.
Hey, just send me the number, nothing else.

In the examples that follow, each entry is paired with its recorded self-splicing fitness (ln).
INSERT INTO results (biopolymer_sequence, result) VALUES
  ('UCAUAGCAAUAUUACGCGGA', -0.822),
  ('CCGUAGCAAUAUUACGGAUC', -2.03),
  ('CGAGAGCAAUAUUACGAAGU', -3.51);

Entry under review: ACUCAGCAAUAUUACGCUGC . Reported self-splicing fitness (ln)?
-2.24

Entry under review: UACGAGCAAUAUUACGCGGU . Reported self-splicing fitness (ln)?
-2.67

Entry under review: AUAAAGCAAUAUUACGUCGU . Reported self-splicing fitness (ln)?
0.314

Entry under review: UGAGAGCAAUAUUACGUUAA . Reported self-splicing fitness (ln)?
-2.46

Entry under review: UUUCAGCAAUAUUACGCGGG . Reported self-splicing fitness (ln)?
-2.35
